A collection of compounds and their measured IC50
Target sequence: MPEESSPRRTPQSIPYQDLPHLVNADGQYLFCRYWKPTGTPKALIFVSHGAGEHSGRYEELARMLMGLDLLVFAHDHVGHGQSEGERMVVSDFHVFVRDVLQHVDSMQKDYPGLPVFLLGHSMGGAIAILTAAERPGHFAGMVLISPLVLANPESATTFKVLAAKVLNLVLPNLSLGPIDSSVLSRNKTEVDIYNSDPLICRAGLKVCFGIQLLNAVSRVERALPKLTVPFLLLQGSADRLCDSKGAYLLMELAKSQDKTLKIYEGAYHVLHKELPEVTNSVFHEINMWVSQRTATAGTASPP

>  <compound>
O=C(N1CC2(CC(Nc3ccc(C(F)(F)F)nn3)C2)C1)N1CC2(CC(c3nnc(C4CC4)[nH]3)C2)C1

>  <value.units>
nM

>  <IC50>
25.7

$$$$
>  <compound>
CS(=O)(=O)c1cc(OC(F)(F)F)ccc1OCC1CCN(C(=O)N2CC3(CC(c4nc(C5(O)CC5)n[nH]4)C3)C2)CC1

>  <value.units>
nM

>  <IC50>
731

$$$$
>  <compound>
N=[S@](=O)(c1ccc(CC2CC3(C2)CN(C(=O)N2CC4(CC(c5nnc(C6CC6)[nH]5)C4)C2)C3)cc1)C(F)(F)F (single isomer, unassigned)

>  <value.units>
nM

>  <IC50>
0.1

$$$$
>  <compound>
O=C(N1CC2(CC(Cc3ncn(CC(F)(F)F)n3)C2)C1)N1CC2(CC(c3nc(C4CC4)n[nH]3)C2)C1

>  <value.units>
nM

>  <IC50>
4.41

$$$$
>  <compound>
CS(=O)(=O)c1ccc(OCC2CCN(C(=O)N3CC4(CC(c5nc(C6(O)CC6)n[nH]5)C4)C3)CC2)cc1C(F)(F)F

>  <value.units>
nM

>  <IC50>
326

$$$$
>  <compound>
Cn1ncc(CN2CC3(C2)CN(C(=O)N2CC4(CC(c5nc(C6CC6)n[nH]5)C4)C2)C3)c1C(F)(F)F

>  <value.units>
nM

>  <IC50>
8.96

$$$$
>  <compound>
O=C(N1CC2(CC(c3nnc(C4CC4)[nH]3)C2)C1)N1CC2(C1)CN(S(=O)(=O)C13CC(C(F)(F)F)(C1)C3)C2

>  <value.units>
nM

>  <IC50>
25.3

$$$$
>  <compound>
O=C(N1CC2(CC(c3nnc(C4CC4)[nH]3)C2)C1)N1CC2(CN(Cc3cnc(C(F)(F)F)cn3)C2)C1

>  <value.units>
nM

>  <IC50>
18.3

$$$$
>  <compound>
Cc1cc([C@@H](C)C2CC3(C2)CN(C(=O)N2CC4(CC(c5nc(C6CC6)n[nH]5)C4)C2)C3)ncc1C(F)(F)F

>  <value.units>
nM

>  <IC50>
0.14

$$$$
>  <compound>
O=C(N1CC2(CC(Cn3cc(C(F)(F)F)cn3)C2)C1)N1CC2(CC(c3nc(C4COC4)n[nH]3)C2)C1

>  <value.units>
nM

>  <IC50>
104

$$$$
>  <compound>
O=C(N1CC2(CC(c3nnc(C4CC4)[nH]3)C2)C1)N1CC2(C1)CN(S(=O)(=O)c1ccc(F)c(F)c1)C2

>  <value.units>
nM

>  <IC50>
20.6

$$$$
>  <compound>
O=C(N1CCN(Cc2ccc(C(F)(F)F)nc2)CC1)N1CC2(CC(c3nnc(C4CC4)[nH]3)C2)C1

>  <value.units>
nM

>  <IC50>
133

$$$$
>  <compound>
N#Cc1cc(CC2CC3(C2)CN(C(=O)N2CC4(CC(c5nc(C6(F)CC6)n[nH]5)C4)C2)C3)ccc1C(F)(F)F

>  <value.units>
nM

>  <IC50>
0.06

$$$$

These measurements were taken from patent US20250099448A1.
